biological target: Nuclear receptor ROR-gamma (Homo sapiens) (UniProt P51449); experiment: qHTS assay to identify small molecule antagonists of the retinoid-related orphan receptor gamma (ROR-gamma) signaling pathway (AID 1159521; also: nearly all actives have a fitted effect of over 50% in size); details: Tet-on RORgamma CHO cells, RORE-luciferase, 16 h; series mostly up to 92.4 µM
Records with an inconclusive call do not appear. Activity calls are given as the source filed them. Calls follow the shape of the dose curve; as a rule, active = well fitted inhibition curve with a large enough effect in the repeat runs; inconclusive = weak or mixed curves, or effect the other way; inactive = no such curve, though single readings can be large or run the other way.
One label from this list, please: T = active, F = inactive

>  <compound>
C[C@H]1CNCCc2ccc(Cl)cc21

>  <category>
F

$$$$
>  <compound>
BrCCCCBr

>  <category>
F

$$$$
>  <compound>
CCCCC(O)(Cn1cncn1)c1ccc(Cl)cc1Cl (stereo not drawn)

>  <category>
T

$$$$

IN: Record request — test call for `COP(=S)(OC)Oc1ccc([N+](=O)[O-])cc1Cl`
OUT: T

IN: Entry `C/C=C/C=O` : call = ?
OUT: F

IN: What did the test return for `CCOc1ccc(C(C)(C)COCc2cccc(Oc3ccccc3)c2)cc1` ?
OUT: F

IN: Each compound tested received a call. Report the one for `CCBr` .
OUT: F

IN: Short answer needed: outcome of this test for `CCOP(=O)(OCC)Oc1ccc([N+](=O)[O-])cc1` ?
OUT: F

----------
assay: qHTS assay to identify small molecule agonists of the vitamin D receptor (VDR) signaling pathway - cell viability counter screen (AID 743224); details: VDR-bla HEK293T viability, CellTiter-Glo luminescence, 16 h; series mostly up to 62.6 µM; also: nearly all actives have a fitted effect of over 50% in size
Records with an inconclusive call do not appear. Active and inactive are the calls of the source. The call rests on the fitted dose curve; in most records, active means well fitted cell-killing curve with a large enough effect in the repeat runs; inconclusive means weak or mixed curves, or effect the other way; inactive means no such curve, though single readings can be large or run the other way.
Your response should consist of one outcome taken from active, inactive

>  <molecule>
Nc1nc(N)nc(N)n1

>  <category>
inactive

$$$$
>  <molecule>
CC(C)(Cl)[N+](=O)[O-]

>  <category>
inactive

$$$$
>  <molecule>
Cn1sc(Cl)cc1=O

>  <category>
inactive

$$$$
>  <molecule>
CCOc1nc(F)cc2nc(S(=O)(=O)Nc3c(Cl)cccc3Cl)nn12

>  <category>
inactive

$$$$
>  <molecule>
Cc1cc(=O)[nH]o1

>  <category>
inactive

$$$$
>  <molecule>
O=C(O)C1(c2ccc3c(c2)OC[C@H](Cc2ccc(-c4ccccc4)cc2)[C@H]3O)CCCC1

>  <category>
active

$$$$
>  <molecule>
O=[N+]([O-])c1ccc(F)c([N+](=O)[O-])c1

>  <category>
inactive

$$$$
>  <molecule>
CC(Cl)Cl

>  <category>
inactive

$$$$
>  <molecule>
CCCN(CC1CC1)c1c([N+](=O)[O-])cc(C(F)(F)F)cc1[N+](=O)[O-]

>  <category>
inactive

$$$$
>  <molecule>
O=NN1CCNCC1

>  <category>
inactive

$$$$

IN: Per the records of this test, what outcome belongs to `C=CC(=O)OC(C)(C)C` ?
OUT: inactive

IN: State the result this test recorded for CC1Sc2c(C(=O)O)c(=O)c3cc(F)c(N4CCNCC4)cc3n21 (configuration not stated) .
OUT: inactive

IN: For CCCCC(O)(Cn1cncn1)c1ccc(Cl)cc1Cl (configuration not stated) , what call appears in the results of this test?
OUT: active

IN: // param item: CC1C(=O)C[C@]2(C(C)C)C[C@H]12 (some centres not stated) ; yields the recorded call
OUT: inactive

----------
target: Progesterone receptor (Homo sapiens) (UniProt P06401); assay: qHTS assay to identify small molecule antagonists of the progesterone receptor (PR) signaling pathway (AID 1346795); conditions: PR-UAS-bla HEK293T, beta-lactamase FRET ratio, 16 h; series mostly up to 92.4 µM
Sequence (P06401 whole entry, looked up): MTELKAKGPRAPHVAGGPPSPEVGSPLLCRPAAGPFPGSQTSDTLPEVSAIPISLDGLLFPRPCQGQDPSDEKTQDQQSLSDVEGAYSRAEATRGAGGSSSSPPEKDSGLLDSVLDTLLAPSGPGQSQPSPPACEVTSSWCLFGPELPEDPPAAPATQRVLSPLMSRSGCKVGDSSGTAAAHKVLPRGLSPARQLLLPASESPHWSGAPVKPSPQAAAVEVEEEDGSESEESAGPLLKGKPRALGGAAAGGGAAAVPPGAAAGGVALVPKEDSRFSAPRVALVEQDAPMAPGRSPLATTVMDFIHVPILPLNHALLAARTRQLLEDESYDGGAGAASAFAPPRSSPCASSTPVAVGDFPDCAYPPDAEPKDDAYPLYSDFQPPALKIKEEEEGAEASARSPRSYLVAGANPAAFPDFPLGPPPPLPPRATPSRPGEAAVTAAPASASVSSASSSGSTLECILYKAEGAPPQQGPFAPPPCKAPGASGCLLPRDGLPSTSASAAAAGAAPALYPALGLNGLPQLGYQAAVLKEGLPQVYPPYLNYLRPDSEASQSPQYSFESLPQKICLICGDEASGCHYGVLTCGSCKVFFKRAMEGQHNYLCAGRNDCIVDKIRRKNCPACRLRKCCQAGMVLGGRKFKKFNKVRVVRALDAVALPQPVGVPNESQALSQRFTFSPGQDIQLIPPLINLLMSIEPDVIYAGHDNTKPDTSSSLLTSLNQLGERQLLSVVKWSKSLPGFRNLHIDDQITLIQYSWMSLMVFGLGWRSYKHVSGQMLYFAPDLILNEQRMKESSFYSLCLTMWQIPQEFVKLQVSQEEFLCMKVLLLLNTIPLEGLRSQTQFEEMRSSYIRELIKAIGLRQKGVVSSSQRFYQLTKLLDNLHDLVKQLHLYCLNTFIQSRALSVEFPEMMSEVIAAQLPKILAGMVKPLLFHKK
Results filed as inconclusive are left out. Calls of active or inactive are those of the source. Calls come from the whole dose curve; as a rule, active = well fitted inhibition curve with a large enough effect in the signal ratio in the repeat runs (not every such curve was filed as active); inconclusive = weak or mixed curves; inactive = flat fitted curve, though single readings scatter; the % refers to the signal ratio.
The reply should be one of these categories: active, inactive

Before answering, review these 3 worked examples.
>  <compound>
COc1cc(Cl)c(OC)cc1Cl

>  <subject of test>
Progesterone receptor (Homo sapiens) (UniProt P06401)

>  <category>
inactive

$$$$
>  <compound>
ClCc1ccccc1

>  <subject of test>
Progesterone receptor (Homo sapiens) (UniProt P06401)

>  <category>
inactive

$$$$
>  <compound>
O=C(CCl)c1ccc(Cl)cc1Cl

>  <subject of test>
Progesterone receptor (Homo sapiens) (UniProt P06401)

>  <category>
inactive

$$$$

IN: Any idea what this test logged for ClCC(Br)CBr (stereo unspecified) ?
OUT: inactive

IN: For `CC(C)O.CC(C)O.OCCN(CCO)CCO.OCCN(CCO)CCO.[Ti]` , what call appears in the results of this test?
OUT: inactive

IN: How was `O=C(CBr)OCc1ccccc1` classified in this test?
OUT: inactive

IN: Tell me the assay call for Cn1cc[n+](C)c1 (tested in a mixture with another compound) please.
OUT: inactive

IN: Recorded test call requested for `O=C(C(Cl)(Cl)Cl)C(Cl)(Cl)Cl`
OUT: inactive

IN: Query: recorded result category for COCC(C)N(C(=O)CCl)c1c(C)csc1C (stereo unspecified) in this test
OUT: active

IN: What classification did CN1C(=O)NC(=O)C(C)(C2=CCCCC2)C1=O (stereo unspecified) end up with in this test?
OUT: inactive

IN: Called result for `CC(Cl)Cl`
OUT: inactive

IN: Check the results log: what was the call for `CCOP(=S)(OCC)SCn1nnc2ccccc2c1=O` ?
OUT: active

IN: Please state the recorded outcome for this compound: `O=Cc1ccc2c(c1)OCO2`
OUT: inactive

IN: Identify the outcome logged in this assay for the compound shown: `CCCCN=C=O`
OUT: inactive

IN: GET /call?item= `CCOS(C)(=O)=O` returns the recorded outcome of this test.
OUT: inactive

IN: Dear all, I need the recorded test outcome for `Cl/C=C\C[N+]12CN3CN(CN(C3)C1)C2` , thank you.
OUT: inactive

IN: Please share the test call associated with `Nc1nc(N)nc(N)n1` .
OUT: inactive

----------
target: Progesterone receptor (Homo sapiens); experiment: qHTS assay to identify small molecule agonists of the progesterone receptor (PR) signaling pathway (AID 1346784); settings: PR-UAS-bla HEK293T, beta-lactamase FRET ratio, 16 h; series mostly up to 92.4 µM; also: % is scaled to controls: 0 for no effect and ±100 for the full control effect; nearly all actives have a fitted effect of over 30% in size
Results filed as inconclusive are left out. Calls of active or inactive are those of the source. Calls follow the shape of the full dose curve.
measure name: outcome

>  <smiles>
CC(=O)CCC(C)=O

>  <measure name>
outcome

>  <result>
inactive

$$$$
>  <smiles>
Clc1cccc(SC2CCNCC2)n1

>  <measure name>
outcome

>  <result>
inactive

$$$$
>  <smiles>
CCOP(O)OCC

>  <measure name>
outcome

>  <result>
inactive

$$$$

----------
biological target: Nuclear receptor subfamily 1 group I member 2 (Homo sapiens) (UniProt O75469); assay: Human pregnane X receptor (PXR) small molecule agonists, qHTS assay (AID 1346982); settings: PXR-Luc HepG2, CYP3A4 luciferase reporter, 24 h; series mostly up to 92.4 µM; also: nearly all actives have a fitted effect of over 35% in size; as to activation: % is scaled to controls: 0 for no effect and ±100 for the full control effect
Sequence (O75469 whole entry, looked up): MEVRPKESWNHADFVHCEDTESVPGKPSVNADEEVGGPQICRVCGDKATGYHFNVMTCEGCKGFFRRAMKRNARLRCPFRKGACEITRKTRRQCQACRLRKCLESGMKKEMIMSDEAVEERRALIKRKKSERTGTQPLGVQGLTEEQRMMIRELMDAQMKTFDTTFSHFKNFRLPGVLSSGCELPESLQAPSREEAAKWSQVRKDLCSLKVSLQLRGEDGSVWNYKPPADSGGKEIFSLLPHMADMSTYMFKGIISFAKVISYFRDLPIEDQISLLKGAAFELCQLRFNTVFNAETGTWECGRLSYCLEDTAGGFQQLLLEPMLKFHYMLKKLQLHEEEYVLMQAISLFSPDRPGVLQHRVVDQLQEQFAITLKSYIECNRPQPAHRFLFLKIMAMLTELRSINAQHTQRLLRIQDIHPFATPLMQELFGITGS
Inconclusive results are not listed. Activity calls are given as the source filed them. Calls follow the shape of the dose curve; as a rule, active = well fitted activation curve with a large enough effect in the repeat runs; inconclusive = weak or mixed curves; inactive = no such curve, though single readings can be large or run the other way.
Select the matching outcome among class 1 = active, class 0 = inactive

>  <compound>
CCCCN(N=O)C(=N)N[N+](=O)[O-]

>  <subject of test>
Nuclear receptor subfamily 1 group I member 2 (Homo sapiens) (UniProt O75469)

>  <category>
class 0

$$$$
>  <compound>
CC(C)(C)C(O)C(Oc1ccc(Cl)cc1)n1cncn1 (configuration not stated)

>  <subject of test>
Nuclear receptor subfamily 1 group I member 2 (Homo sapiens) (UniProt O75469)

>  <category>
class 1

$$$$
>  <compound>
Brc1ccccc1

>  <subject of test>
Nuclear receptor subfamily 1 group I member 2 (Homo sapiens) (UniProt O75469)

>  <category>
class 0

$$$$

IN: What did this assay record as the result for `CCOP(O)OCC` ?
OUT: class 0

IN: Write down the call the test reported for this compound. Item: `II`
OUT: class 0

IN: Any idea what this test logged for `CCc1ccc(C(=O)NN(C(=O)c2cc(C)cc(C)c2)C(C)(C)C)cc1` ?
OUT: class 0

IN: # fetch the recorded call for `O=C(NC(=O)c1c(F)cccc1F)Nc1cc(Cl)c(Oc2ncc(C(F)(F)F)cc2Cl)c(Cl)c1` here
OUT: class 1

IN: Please let me know the test result on file for `CC(C)O.CC(C)O.OCCN(CCO)CCO.OCCN(CCO)CCO.[Ti]` .
OUT: class 0

IN: # fetch the recorded call for O=S1OC[C@@H]2[C@H](CO1)[C@]1(Cl)C(Cl)=C(Cl)[C@@]2(Cl)C1(Cl)Cl (some centres not stated) here
OUT: class 1

IN: Hi, sorry to bother you, what did the test record for `O=C(NCc1cccnc1)Nc1ccc([N+](=O)[O-])cc1` ?
OUT: class 0

IN: I'd appreciate the recorded outcome for `OC(c1ccc(Cl)cc1)(c1ccc(Cl)cc1)c1cccnc1` from this test.
OUT: class 1

IN: For `CC(C)=CCOc1c2occc2cc2ccc(=O)oc12` , which call appears in the assay record?
OUT: class 0

----------
experiment: qHTS assay to identify small molecule agonists of the estrogen receptor beta (ER-beta) signaling pathway - cell viability counter screen (AID 1259380); settings: ER-beta-bla HEK293T viability, CellTiter-Glo luminescence, 16 h; series mostly up to 92.4 µM; also: nearly all actives have a fitted effect of over 30% in size
Results filed as inconclusive are left out. The source made the active and inactive calls. Calls follow the shape of the dose curve; as a rule, active = well fitted cell-killing curve with a large enough effect in the repeat runs; inconclusive = weak or mixed curves, or effect the other way; inactive = flat fitted curve, though single readings scatter.
Outcome (select one): active, inactive

Some solved entries appear below for comparison.
>  <compound>
CN1[C@@H]2CC[C@H]1CC(OC(=O)c1cc(Cl)cc(Cl)c1)C2 (stereo partly drawn)

>  <category>
active

$$$$
>  <compound>
C=CCN1CC[C@]23c4c5ccc(O)c4O[C@H]2C(=O)CC[C@@]3(O)[C@H]1C5

>  <category>
inactive

$$$$
>  <compound>
N#C/C(N)=C(/N)C#N

>  <category>
inactive

$$$$
>  <compound>
COC(=O)c1cncn1C(C)c1ccccc1 (stereo not drawn)

>  <category>
inactive

$$$$
>  <compound>
ClCCCCBr

>  <category>
inactive

$$$$
>  <compound>
CCCCCCCCCCOC(=O)c1ccccc1C(=O)OCCCCCCCCCC

>  <category>
inactive

$$$$

IN: Status in this test for CN1C(=O)C(O)N=C(c2ccccc2)c2cc(Cl)ccc21 (stereo not drawn) ?
OUT: inactive

IN: Record lookup: outcome of this test for `Clc1cc(Cl)c(Cl)c(Cl)c1` ?
OUT: inactive

IN: Recorded test call requested for `O=S(=O)(O)C(F)(F)C(F)(F)C(F)(F)C(F)(F)F`
OUT: inactive

IN: Kindly provide the recorded test outcome for the following compound: `CCOP(O)OCC`
OUT: inactive
